test system: human OX2R (Homo sapiens (Human), UniProt O43614)
Sequence (O43614 whole entry): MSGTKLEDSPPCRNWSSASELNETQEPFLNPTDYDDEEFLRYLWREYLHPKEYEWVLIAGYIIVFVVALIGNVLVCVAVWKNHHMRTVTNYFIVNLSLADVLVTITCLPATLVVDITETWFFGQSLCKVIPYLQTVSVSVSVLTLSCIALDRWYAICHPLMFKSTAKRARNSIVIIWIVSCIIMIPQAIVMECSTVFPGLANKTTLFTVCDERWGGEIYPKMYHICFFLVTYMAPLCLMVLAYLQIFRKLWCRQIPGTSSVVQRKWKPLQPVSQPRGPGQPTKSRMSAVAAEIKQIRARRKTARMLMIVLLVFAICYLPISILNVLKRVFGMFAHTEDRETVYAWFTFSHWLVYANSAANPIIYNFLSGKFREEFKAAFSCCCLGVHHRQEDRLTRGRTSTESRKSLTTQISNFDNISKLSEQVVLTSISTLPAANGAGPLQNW
experiment summary: IPOne (IP-One, Cisbio) orexin receptor agonist assay in CHO cells expressing human OX2R
Measured pIC50 of individual entries
The meaning of pIC50 here: minus log10 of the concentration in molar units.

Record excerpt, results attached:
Please list pIC50 recorded for the compound CCOC(=O)N1[C@H](C)C[C@H](NS(C)(=O)=O)[C@@H]1COC1CCC(C(C)C)CC1 (stereo partly shown) [Example 7]
7.34

Please list pIC50 recorded for the compound COC(=O)N1[C@H](C)C[C@H](NS(=O)(=O)N(C)C)[C@@H]1CO[C@@H]1CC=C(c2cccc(F)c2)CC1 [Example 35]
7.90

Please list pIC50 recorded for the compound CCNC(=O)N1[C@H](C)C[C@H](NS(C)(=O)=O)[C@@H]1COC1CCC(C(C)C)CC1 (stereo partly shown) [Example 1]
7.82

Please list pIC50 recorded for the compound COC(=O)N1[C@@H](CO[C@H]2CC[C@@H](c3ccccc3)CC2)[C@@H](NS(C)(=O)=O)CC12CC2 (relative stereo) [Example 41]
6.65

Please list pIC50 recorded for the compound COC(=O)N1[C@H](C)C[C@H](NS(=O)(=O)N(C)C)[C@@H]1CO[C@H]1CCC(c2cccc(F)c2)C(O)C1 (stereo partly shown) [Example 36]
9.12

More entries:
Please list pIC50 recorded for the compound COC(=O)N1[C@H](C)C[C@H](NS(C)(=O)=O)[C@@H]1COC1CCC(c2ccccc2)CC1OC (stereo partly shown) [Example 33]
5.67

Please list pIC50 recorded for the compound COC(=O)N1[C@H](CC#N)C[C@H](NS(=O)(=O)N(C)C)[C@@H]1CO[C@H]1CC[C@@H](c2cccc(F)c2)CC1 [Example 52]
8.11

Please list pIC50 recorded for the compound CCC1(CC)C[C@@H](NS(C)(=O)=O)[C@@H](CO[C@H]2CC[C@@H](c3ccccc3)CC2)N1C(=O)OC (relative stereo) [Example 42]
6.50

Please list pIC50 recorded for the compound CNS(=O)(=O)N[C@H]1C[C@@H](C)N(C(=O)OC(C)C)[C@H]1COC1CCN(c2ncccn2)CC1 [Example 38]
8.15

Please list pIC50 recorded for the compound COC(=O)N1[C@H](C)C[C@H](NS(C)(=O)=O)[C@@H]1COC1CCC(c2ccccc2)CC1C (stereo partly shown) [Example 34]
7.43
